Tested on: UACC-257 melanoma
assay-overview: NCI-60 one-dose screen, 48 h (100 = growth as untreated, 0 = no growth, -100 = all killed)
run-parameters: 10 µM
Experimental: Cells are grown in 96 well plates and exposed to the test compound for 48 hours. Compounds are tested at a single concentration, which is 10^-5 M for most compounds. The reported endpoint is percent growth (GI% or GIPRCNT), where numbers from 0 - 100% represent growth inhibition, and numbers from -100% - 0 represent cell death. For example, a value of 40 represents 60% growth inhibition. A value of 0 means no net growth occurred over the course of the experiment. […]
The panel holds about 83,000 compounds, 20% with a hit somewhere; the sample as a whole holds those more often.
measured-attribute: growth (%)

- CN(C)c1ccc(/C=C/C=N/NC(=O)c2cc(O)c(O)c(O)c2)cc1: 92.8
- c1ccc(C(NC2CC3CCC2C3)c2ccccc2)cc1 (stereo not given): 102
- COc1ccc(/C=C/C(=O)Nc2ccc(-c3nc4ccc(F)cc4s3)cc2)cc1: 94.9
- O=C(Nc1cccc(-n2cc(-c3ccncc3)c(-c3cc(O)cc(Cl)c3)n2)c1)c1ccc(N2CCOCC2)c(C(F)(F)F)c1: 9.38
- CC1(C)Cc2c(sc3ncn4nc(-c5ccc(O)cc5)nc4c23)CO1: 89.7
- CCN(CC)CCOc1nc2ccc(OC)cc2c2c1-c1ccc(OC)cc1C2=O: -52.8
- COc1ccc(-c2nn(-c3cccc(NC(=O)c4cccc(C(F)(F)F)c4)c3)cc2-c2ccncc2)cc1Cl: 25.5
- COc1cc(NC(=O)CCSc2nc3ccc(Cl)cc3c(=O)n2Cc2ccccc2)cc(OC)c1OC: 61
- COc1ccc(/C=C2/CN(C(=O)c3ccc(C)cc3)C/C(=C\c3ccc(OC)cc3)C2=O)cc1: 98.1
- COc1cccc(C(=O)Nc2ccc(CN3CCc4nc5cc(OC)c(OC)cc5cc43)cc2)c1: 35.9
- Cc1ccc(NC(=O)Nc2nc3ccccc3s2)cc1NC(=O)Nc1nc2ccccc2s1: 10.5
- N#CSCC1CC(O)(c2ccccc2)CC(c2ccc(Cl)cc2)O1 (stereo not given): 87.8
- COc1ccc(C2=Nc3c(C)nn(-c4ccccc4)c3NC(c3ccc(Oc4ccnc5cc(Cl)ccc45)c(OC)c3)C2)cc1 (stereo not given): 98.3
- Cc1cccc(NC2=C(C#N)C(=O)NC3(CCCC3)S2)c1: -4.62
- COc1ccc2c(c1)-c1c(c3cc(OC)ccc3n(CCN(C)C)c1=O)C2=O: 18.4
- N#CCCN1C/C(=C/c2ccc(Cl)cc2)C(=O)/C(=C/c2ccc(Cl)cc2)C1: -53.4
- Nc1ccccc1NC(=O)CCCCC(=O)Nc1ccc2c(c1)/C(=C/c1ccc[nH]1)C(=O)N2: 97.9
- CCOC(=O)N1C=CC2C=CC1C1C=CC=CC2N1C(=O)OCC (stereo not given): 87.7
- CCN(CC)CCC(CNc1c(C)cnc2cc(Cl)ccc12)c1ccc(Cl)c(Cl)c1 (stereo not given): -49.6
- COc1cc(C(=O)N2CCN(c3ccccc3OC)CC2)c(N)cc1OCCCN1CCN(c2ccccc2OC)CC1: 104
- CC(C)(C)c1ccc(N2CSC(=S)N(c3ccc(C(C)(C)C)cc3)C2)cc1: -6.73
- COc1cc(/C=N/NC(=O)c2ccccc2Nc2ccnc(C(F)(F)F)c2)ccc1O: 126
- Cn1c(C(N)=O)cc2c1-c1nc(Nc3ccccc3)ncc1CCC2: 74.3
- COc1ccc2nc3ccccc3c(NCCNCC(C)O)c2c1 (stereo not given): 7.95
- Clc1cccc(-c2nc(-c3cccs3)no2)c1: 110
- COc1ccc(-c2cc(/C=C3\C(=O)Nc4ccc(OC)cc43)[nH]n2)cc1: 68.8
- COc1ccc(-c2cc(-c3ccc(N(C)C)cc3)c(C#N)c(N3CCCC3)n2)cc1: 88
- NC(=O)SCC(=O)Nc1ccc(S(N)(=O)=O)cc1: 101
- Nc1cc2c(cc1Cl)-c1ccc([N+](=O)[O-])cc1/C2=N\O: 103
- O=C(NN1C(=O)CSC1c1ccc(Cl)cc1)c1cccnc1 (stereo not given): 112
- Cc1cccc2c(NCCN(C)C)c3cccc(C(=O)NCCN(C)C)c3nc12: -20.6
- O=C1/C(=C\c2ccc(Br)cc2)CN(C(=O)c2ccccc2F)C/C1=C\c1ccc(Br)cc1: 30.6
- CCN(CC)CCC(=O)Nc1cccc2c1C(=O)c1c(c(O)c3ccccc3c1O)C2=O: 85.6
- CC/C(=C(/c1ccc(OCCN(C)C)cc1)c1ccc(OC(=O)CCCCCCCCC(=O)c2c(C)[nH]c(/C=C3\N=C(c4ccc[nH]4)C=C3OC)c2C)cc1)c1ccccc1: 90.5
- O=C1OCC2=C1C(c1cccc(Cl)c1)c1cc3c(cc1N2CCO)CCC3 (stereo not given): 46
- CCCCCCN1CCN(Cc2ccc(N(CC)CC)cc2)C(=O)C1=O: 33.7
- O=C(Nc1nc(-c2ccccc2Cl)cs1)c1cc(-c2ccc(Cl)cc2)nc2ccc(Cl)cc12: 66.8
- CS(=O)(=O)Nc1ccc(Nc2c3ccccc3nc3cc([N+](=O)[O-])ccc23)cc1: 44.6
- COc1ccc(Nc2nc3ccc(NC(=O)NC4CCCCC4)cc3[nH]c2=O)cc1: 90.4
- CCCCCCCNc1nc(C=O)ncc1-c1ccc(C(F)(F)F)cc1: 107
